assay: In vivo DDI: pravastatin pharmacokinetics; settings: male, C57BL/6, mouse, plasma, po, 20 mg/kg, C57BL/6 male; pravastatin 20 mg/kg oral; perpetrator rifampin 20 mg/kg
readout.type: AUC (ng·h/mL)
API: value field is a number in ng·h/mL; no unit string.

Name the reported AUC value associated with the compound `CC[C@H](C)C(=O)O[C@H]1C[C@H](O)C=C2C=C[C@H](C)[C@H](CC[C@@H](O)C[C@@H](O)CC(=O)O)[C@H]21`
333

====

assay: In vivo DDI: pravastatin pharmacokinetics; settings: male, C57BL/6, mouse, plasma, po, 20 mg/kg, C57BL/6 male; pravastatin 20 mg/kg oral; perpetrator rifampin 20 mg/kg
readout.type: Cmax (ng/mL)
Field: numeric (ng/mL). Do not append units.

Quick one: Cmax for CC[C@H](C)C(=O)O[C@H]1C[C@H](O)C=C2C=C[C@H](C)[C@H](CC[C@@H](O)C[C@@H](O)CC(=O)O)[C@H]21 [Pravastatin, pravastatin] ?
994

====

assay: In vivo DDI: gilteritinib pharmacokinetics; design: species or system mouse; settings: male, C57BL/6, mouse, plasma, po, 30 mg/kg, C57BL/6 male; gilteritinib 30 mg/kg oral; perpetrator TL-895 3 mg/kg
readout.type: AUC
Hi, when you answer, please include the unit after the number. Thanks!

Value lookup for AUC; key = `CCc1nc(C(N)=O)c(Nc2ccc(N3CCC(N4CCN(C)CC4)CC3)c(OC)c2)nc1NC1CCOCC1`
5130 ng·h/mL

====

test: In vivo DDI: gilteritinib pharmacokinetics; set-up: species or system mouse; conditions: male, C57BL/6, mouse, plasma, po, 30 mg/kg, C57BL/6 male; gilteritinib 30 mg/kg oral; perpetrator vehicle
readout.type: Cmax (ng/mL)
Express it in ng/mL; write the number only.

Please look up its Cmax: CCc1nc(C(N)=O)c(Nc2ccc(N3CCC(N4CCN(C)CC4)CC3)c(OC)c2)nc1NC1CCOCC1 [Gilteritinib, gilteritinib]
469

====

molecular target: BTK-NanoLuc Fusion Vector in HEK293 cells (Homo sapiens, UniProt Q06187); assay: NanoBRET intracellular binding assay, BTK; conditions: read-out: EC50 BTK (NanoBRET), positive control
Sequence (Q06187 whole entry, the tested form may be a part): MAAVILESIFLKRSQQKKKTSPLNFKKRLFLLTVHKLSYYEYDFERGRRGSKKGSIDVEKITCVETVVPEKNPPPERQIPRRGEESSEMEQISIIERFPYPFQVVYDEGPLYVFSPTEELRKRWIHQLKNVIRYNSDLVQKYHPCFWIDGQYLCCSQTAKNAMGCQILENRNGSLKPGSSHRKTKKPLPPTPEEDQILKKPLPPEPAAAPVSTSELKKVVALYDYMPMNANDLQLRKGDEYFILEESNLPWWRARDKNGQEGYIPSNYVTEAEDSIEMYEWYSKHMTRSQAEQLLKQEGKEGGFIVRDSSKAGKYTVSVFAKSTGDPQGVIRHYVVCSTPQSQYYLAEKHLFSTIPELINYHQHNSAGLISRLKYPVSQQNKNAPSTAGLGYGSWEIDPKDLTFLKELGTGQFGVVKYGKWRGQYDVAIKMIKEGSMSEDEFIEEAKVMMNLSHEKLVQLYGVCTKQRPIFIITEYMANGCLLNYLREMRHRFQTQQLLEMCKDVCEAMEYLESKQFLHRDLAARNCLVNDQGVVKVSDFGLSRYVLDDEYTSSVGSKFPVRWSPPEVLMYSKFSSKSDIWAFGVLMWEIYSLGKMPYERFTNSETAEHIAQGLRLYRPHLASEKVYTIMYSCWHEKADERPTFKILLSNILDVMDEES
readout.type: EC50 (µM)
Field format: number, assumed µM, no unit text.

Suppose we examine the compound `CNC(=O)c1ccccc1Nc1nc(Nc2ccc(N3CCNCC3)cc2)ncc1Cl` ; what EC50 value has been reported?
0.0301

====

assay: In vivo DDI: gilteritinib pharmacokinetics; parameters: species or system mouse; details: female, NSG (NOD/SCID gamma), mouse, plasma, po, 30 mg/kg, NSG female; gilteritinib 30 mg/kg oral; perpetrator TL-895 3 mg/kg
readout.type: AUC (ng·h/mL)
Entry rule: numbers only, all in ng·h/mL.

Look up AUC: `CCc1nc(C(N)=O)c(Nc2ccc(N3CCC(N4CCN(C)CC4)CC3)c(OC)c2)nc1NC1CCOCC1`
4830

====

assay: In vivo DDI: gilteritinib pharmacokinetics; design: species or system mouse; conditions: female, C57BL/6, mouse, plasma, po, 30 mg/kg, C57BL/6 female; gilteritinib 30 mg/kg oral; perpetrator vehicle
readout.type: Cmax (ng/mL)
Number in ng/mL, nothing else.

Value lookup for Cmax; key = `CCc1nc(C(N)=O)c(Nc2ccc(N3CCC(N4CCN(C)CC4)CC3)c(OC)c2)nc1NC1CCOCC1`
787

====

test: In vivo DDI: gilteritinib pharmacokinetics; parameters: species or system mouse; details: male, NSG (NOD/SCID gamma), mouse, plasma, po, 30 mg/kg, NSG male; gilteritinib 30 mg/kg oral; perpetrator vehicle
readout.type: AUC (ng·h/mL)
Give just the number in ng·h/mL; leave the unit off.

Look at this compound and give its reported AUC. CCc1nc(C(N)=O)c(Nc2ccc(N3CCC(N4CCN(C)CC4)CC3)c(OC)c2)nc1NC1CCOCC1 [Gilteritinib, gilteritinib]
4410

====

test: In vivo DDI: gilteritinib pharmacokinetics; design: species or system mouse; settings: male, NSG (NOD/SCID gamma), mouse, plasma, po, 30 mg/kg, NSG male; gilteritinib 30 mg/kg oral; perpetrator TL-895 3 mg/kg
readout.type: AUC
The answer should read as a number with its unit following.

Consider the compound `CCc1nc(C(N)=O)c(Nc2ccc(N3CCC(N4CCN(C)CC4)CC3)c(OC)c2)nc1NC1CCOCC1` and give its measured AUC.
4370 ng·h/mL

====

assay: In vivo DDI: pravastatin pharmacokinetics; details: male, C57BL/6, mouse, plasma, po, 20 mg/kg, C57BL/6 male; pravastatin 20 mg/kg oral; perpetrator vehicle
readout.type: Cmax
# number then unit; no other words

Suppose we examine the molecule `CC[C@H](C)C(=O)O[C@H]1C[C@H](O)C=C2C=C[C@H](C)[C@H](CC[C@@H](O)C[C@@H](O)CC(=O)O)[C@H]21` ; what Cmax value has been reported?
0.406 µg/mL

====

test: In vivo DDI: gilteritinib pharmacokinetics; parameters: species or system mouse; conditions: female, C57BL/6, mouse, plasma, po, 30 mg/kg, C57BL/6 female; gilteritinib 30 mg/kg oral; perpetrator TL-895 3 mg/kg
readout.type: AUC (ng·h/mL)
Record the value in ng·h/mL, omitting the unit from your answer.

Item `CCc1nc(C(N)=O)c(Nc2ccc(N3CCC(N4CCN(C)CC4)CC3)c(OC)c2)nc1NC1CCOCC1` has what recorded AUC?
6440

====

assay: In vivo DDI: gilteritinib pharmacokinetics; parameters: species or system mouse; details: female, C57BL/6, mouse, plasma, po, 30 mg/kg, C57BL/6 female; gilteritinib 30 mg/kg oral; perpetrator TL-895 3 mg/kg
readout.type: Cmax
State the value with its unit after it.

Need Cmax of CCc1nc(C(N)=O)c(Nc2ccc(N3CCC(N4CCN(C)CC4)CC3)c(OC)c2)nc1NC1CCOCC1 [Gilteritinib, gilteritinib] , thanks.
688 ng/mL

====

test: In vivo DDI: gilteritinib pharmacokinetics; design: species or system mouse; details: male, NSG (NOD/SCID gamma), mouse, plasma, po, 30 mg/kg, NSG male; gilteritinib 30 mg/kg oral; perpetrator TL-895 3 mg/kg
readout.type: Cmax
Write down the value, and be sure its unit follows.

Any idea what Cmax was measured for CCc1nc(C(N)=O)c(Nc2ccc(N3CCC(N4CCN(C)CC4)CC3)c(OC)c2)nc1NC1CCOCC1 [Gilteritinib, gilteritinib] ?
421 ng/mL

====

experiment: In vivo DDI: gilteritinib pharmacokinetics; set-up: species or system mouse; conditions: male, NSG (NOD/SCID gamma), mouse, plasma, po, 30 mg/kg, NSG male; gilteritinib 30 mg/kg oral; perpetrator vehicle
readout.type: Cmax (ng/mL)
Give just the number in ng/mL; leave the unit off.

Look at this compound and give its reported Cmax. CCc1nc(C(N)=O)c(Nc2ccc(N3CCC(N4CCN(C)CC4)CC3)c(OC)c2)nc1NC1CCOCC1 [Gilteritinib, gilteritinib]
440

====

assay: In vivo DDI: gilteritinib pharmacokinetics; parameters: species or system mouse; details: female, NSG (NOD/SCID gamma), mouse, plasma, po, 30 mg/kg, NSG female; gilteritinib 30 mg/kg oral; perpetrator vehicle
readout.type: AUC (ng·h/mL)
Number in ng·h/mL, nothing else.

Consider the compound `CCc1nc(C(N)=O)c(Nc2ccc(N3CCC(N4CCN(C)CC4)CC3)c(OC)c2)nc1NC1CCOCC1` and give its measured AUC.
4930
